Origin of the recorded values: ChEMBL document CHEMBL2029234

Here, each record is paired with measured clearance data.
- ASSAY TEXT: Plasma clearance in iv dosed rat
- Type: ADME, organism-based
RESULT TYPE: clearance (mL/min/kg)

[[record]]
smiles_structure = "O=S(=O)(Cc1cc(N2CCOCC2)nc(-c2ccccn2)n1)c1ccccc1"
result_type = "clearance"
value_unit = "mL/min/kg"
data_value = 32

[[record]]
smiles_structure = "CS(=O)(=O)Cc1cc(N2CCOCC2)nc(-c2cnc3[nH]ccc3c2)n1"
result_type = "clearance"
value_unit = "mL/min/kg"
data_value = 4

[[record]]
smiles_structure = "CS(=O)(=O)Cc1cc(N2CCOCC2)nc(-c2ccc(NS(C)(=O)=O)cc2)n1"
result_type = "clearance"
value_unit = "mL/min/kg"
data_value = 15

[[record]]
smiles_structure = "C[C@H]1COCCN1c1cc(CS(C)(=O)=O)nc(-c2ccc3[nH]ccc3c2)n1"
result_type = "clearance"
value_unit = "mL/min/kg"
data_value = 36

[[record]]
smiles_structure = "CS(=O)(=O)Cc1cc(N2CCOCC2)nc(-c2ccc3[nH]cnc3c2)n1"
result_type = "clearance"
value_unit = "mL/min/kg"
data_value = 37

[[record]]
smiles_structure = "CS(=O)(=O)Cc1cc(N2CCOCC2)nc(-c2ccccc2)n1"
result_type = "clearance"
value_unit = "mL/min/kg"
data_value = 11

[[record]]
smiles_structure = "CS(=O)(=O)Cc1cc(N2CCOCC2)nc(-c2ccc3[nH]ccc3c2)n1"
result_type = "clearance"
value_unit = "mL/min/kg"
data_value = 4

[[record]]
smiles_structure = "CS(=O)(=O)Cc1cc(N2CCOCC2)nc(-c2cccc(CO)c2)n1"
result_type = "clearance"
value_unit = "mL/min/kg"
data_value = 25


---

Here, each record is paired with measured fraction unbound data.
- ASSAY TEXT: Fraction unbound in rat plasma
- Format: ADME, cell-free
RESULT TYPE: fraction unbound

[[record]]
smiles_structure = "CS(=O)(=O)Cc1cc(N2CCOCC2)nc(-c2ccc3[nH]ccc3c2)n1"
value_operator = "="
data_value = 0.193

[[record]]
smiles_structure = "CS(=O)(=O)Cc1cc(N2CC3CCC(C2)O3)nc(-c2ccc3[nH]ccc3c2)n1"
value_operator = "="
data_value = 0.22

[[record]]
smiles_structure = "CS(=O)(=O)Cc1cc(N2CCOCC2)nc(-c2ccc(NS(C)(=O)=O)cc2)n1"
value_operator = ">"
data_value = 0.66

[[record]]
smiles_structure = "C[C@H]1COCCN1c1cc(CS(C)(=O)=O)nc(-c2ccc3[nH]ccc3c2)n1"
value_operator = "="
data_value = 0.167

[[record]]
smiles_structure = "CS(=O)(=O)Cc1cc(N2CCOCC2)nc(-c2cccc(CO)c2)n1"
value_operator = "="
data_value = 0.447

[[record]]
smiles_structure = "CS(=O)(=O)Cc1cc(N2CCOCC2)nc(-c2ccccc2)n1"
value_operator = "="
data_value = 0.28

[[record]]
smiles_structure = "CS(=O)(=O)Cc1cc(N2CCOCC2)nc(NC(=O)c2ccno2)n1"
value_operator = "="
data_value = 0.32

[[record]]
smiles_structure = "CS(=O)(=O)Cc1cc(N2CCOCC2)nc(-c2cccc3[nH]ccc23)n1"
value_operator = "="
data_value = 0.301


---

- ASSAY TEXT: Apparent permeability from apical to basal side of MDCK cells
- Assay type: ADME, cell-based, Canis lupus familiaris
- ASSAY CONDITIONS: dog
RESULT TYPE: Papp A→B (×10⁻⁶ cm/s)

[[record]]
smiles_structure = "CS(=O)(=O)Cc1cc(N2CCOCC2)nc(-c2ccc3[nH]ccc3c2)n1"
result_type = "Papp A→B"
value_unit = "×10⁻⁶ cm/s"
data_value = 37

